system.name: Cell-associated proTGFβ1 (hGARP-proTGFβ1 and hLRRC33-proTGFβ1)
assay.comment: MSD-SET, hIgG4
readout.label: Cell AVRG (average KD) (nM)
Please respond with the number in nM and leave the unit unwritten.

Consider the worked cases shown below.
- Ab29 (antibody, V domains shown) VH: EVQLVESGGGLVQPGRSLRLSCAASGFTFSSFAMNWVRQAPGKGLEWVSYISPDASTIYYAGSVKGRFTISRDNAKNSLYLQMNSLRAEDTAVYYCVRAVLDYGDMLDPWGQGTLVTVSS VL: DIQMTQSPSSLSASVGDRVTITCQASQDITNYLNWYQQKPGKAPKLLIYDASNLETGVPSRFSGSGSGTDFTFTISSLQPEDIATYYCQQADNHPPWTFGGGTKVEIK: 0.024
- Ab24 (antibody, V domains shown) VH: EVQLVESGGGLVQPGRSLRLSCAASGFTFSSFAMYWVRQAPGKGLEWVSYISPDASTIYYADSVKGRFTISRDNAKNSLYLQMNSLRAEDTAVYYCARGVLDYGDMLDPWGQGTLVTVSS VL: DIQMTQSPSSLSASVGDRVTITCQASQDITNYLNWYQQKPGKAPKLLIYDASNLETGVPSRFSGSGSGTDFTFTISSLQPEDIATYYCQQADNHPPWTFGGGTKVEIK: 0.1

Turning now to a further binder:
Lookup: Which Cell AVRG (average KD) reading was recorded for the binder Ab33 (antibody, V domains shown) VH: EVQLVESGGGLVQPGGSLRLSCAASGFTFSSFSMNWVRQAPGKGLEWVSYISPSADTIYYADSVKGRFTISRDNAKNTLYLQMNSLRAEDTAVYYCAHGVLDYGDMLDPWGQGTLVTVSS VL: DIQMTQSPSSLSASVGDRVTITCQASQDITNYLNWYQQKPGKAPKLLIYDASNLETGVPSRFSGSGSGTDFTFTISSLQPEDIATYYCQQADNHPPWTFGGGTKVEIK ?
Found: 0.027
